The reported measurements were obtained from patent EP4786492A1.

As shown below, each of these binders has a reported MFI value.
Molecular target: human DLL3 protein expressed on CHO-K1 recombinant cells (human DLL3 extracellular segment fused to EpCAM transmembrane and intracellular regions) (human) (UniProt Q9NYJ7)
Sequence (Q9NYJ7 other isoform, or with tags, fused parts or gaps limits assumed): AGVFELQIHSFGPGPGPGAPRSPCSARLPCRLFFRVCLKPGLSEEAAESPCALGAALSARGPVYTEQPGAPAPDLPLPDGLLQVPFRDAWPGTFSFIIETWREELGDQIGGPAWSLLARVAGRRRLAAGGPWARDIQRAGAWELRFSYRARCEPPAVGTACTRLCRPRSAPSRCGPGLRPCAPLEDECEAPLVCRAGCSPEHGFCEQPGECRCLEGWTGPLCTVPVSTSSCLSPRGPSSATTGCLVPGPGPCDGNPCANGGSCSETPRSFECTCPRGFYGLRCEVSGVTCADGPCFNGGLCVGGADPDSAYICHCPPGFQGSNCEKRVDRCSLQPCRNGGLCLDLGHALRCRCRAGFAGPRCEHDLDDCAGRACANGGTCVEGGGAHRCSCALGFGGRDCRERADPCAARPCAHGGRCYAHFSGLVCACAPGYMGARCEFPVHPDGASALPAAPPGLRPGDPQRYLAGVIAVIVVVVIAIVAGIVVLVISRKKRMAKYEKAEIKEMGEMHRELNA
Assay: FACS, CHO-K1 hDLL3 cells, 20 nM antibody
Metric Name: MFI (MFI)

1) Hab008L3H5-hFc (scFv, part only; not given: scFv linker and human IgG1 Fc, V domains shown, not shown: another chain or arm of the molecule; a dimerising Fc or GST; small tags and cut ends) VL: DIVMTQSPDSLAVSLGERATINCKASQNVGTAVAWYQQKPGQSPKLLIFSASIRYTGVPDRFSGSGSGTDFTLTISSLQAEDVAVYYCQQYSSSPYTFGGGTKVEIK VH: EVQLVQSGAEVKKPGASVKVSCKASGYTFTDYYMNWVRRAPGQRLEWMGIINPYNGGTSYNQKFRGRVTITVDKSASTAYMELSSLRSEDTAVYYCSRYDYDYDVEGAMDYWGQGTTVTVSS ... 8320
2) Hab009VL3aVH1-hFc (Fc fusion, part only; not given: Linker and human IgG1 Fc, not shown: a dimerising Fc or GST) chain, part: DIVMTQSPLSLPVTPGEPASISCRASQTISDYLHWYLQKSHQSPQLLIKYASQSISGVPDRFSGSGSGTDFTLKISRVEAEDVGVYYCQQGHSFPLTFGQGTKLEIKEVQLVQSGAEVKKPGASVKVSCKASGYTFTSYWMHWVRQAPGQRLEWMGTIYPGNSDTRYNQKFKDRVTITADTSASTAYMELSSLRSEDTAVYYCTRSYDYGDLDYWGQGTTVTVSS ... 13300
3) Hab008L1H2a-hFc (scFv, part only; not given: VL-VH linker and human IgG1 Fc, V domains shown, not shown: another chain or arm of the molecule; a dimerising Fc or GST; small tags and cut ends) VL: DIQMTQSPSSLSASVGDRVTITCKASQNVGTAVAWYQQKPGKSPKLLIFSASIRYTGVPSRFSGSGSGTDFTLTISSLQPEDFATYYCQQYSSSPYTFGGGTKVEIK VH: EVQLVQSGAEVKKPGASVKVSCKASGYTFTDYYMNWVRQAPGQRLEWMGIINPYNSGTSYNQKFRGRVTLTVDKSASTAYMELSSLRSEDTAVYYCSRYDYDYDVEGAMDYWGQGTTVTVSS ... 7660
